# Tested System: human GLP-1R (Homo sapiens, UniProt P43220)
# Sequence (P43220 24-463): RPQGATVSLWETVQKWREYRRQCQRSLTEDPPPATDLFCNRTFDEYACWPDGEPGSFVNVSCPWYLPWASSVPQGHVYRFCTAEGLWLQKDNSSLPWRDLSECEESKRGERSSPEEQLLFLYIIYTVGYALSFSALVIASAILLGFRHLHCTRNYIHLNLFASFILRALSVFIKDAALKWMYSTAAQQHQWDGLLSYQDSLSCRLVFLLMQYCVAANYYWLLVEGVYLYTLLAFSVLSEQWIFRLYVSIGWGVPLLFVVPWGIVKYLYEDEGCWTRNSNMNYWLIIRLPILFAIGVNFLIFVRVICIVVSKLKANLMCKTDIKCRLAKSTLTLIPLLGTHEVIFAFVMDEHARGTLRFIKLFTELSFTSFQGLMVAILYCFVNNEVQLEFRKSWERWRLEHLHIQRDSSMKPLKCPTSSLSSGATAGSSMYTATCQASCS
# Protocol Details: Human GLP-1 Receptor HEK293 cell cAMP assay, 581 fmol/mg GLP-1R expression density
# Type: cell-based
# Parameters: expressed in transfected cells; host or cells: HEK293 clonal cell line
# Recorded Conditions: HEK293 cell line with 581 fmol/mg expression density of GLP-1R; percent of maximal response to GLP-1(7-36)NH2; arithmetic mean; read-out: Emax % (SEM, n), intracellular cAMP response
Structures can show the parent of a compound that is named as a salt.
Endpoint Label: Emax (%)

>  <Compound>
N#Cc1ccc2c(c1)CCOc1cc(c(F)cc1Cc1nc3ccc(C(=O)O)cc3n1C[C@@H]1CCO1)-c1cccc(n1)OC2

>  <Value Reported>
105

$$$$
>  <Compound>
COCCOc1cc(C(=O)O)cc2c1nc(Cc1ccc3cc1COCCc1nc(ccc1C#N)COc1cccc-3n1)n2C[C@@H]1CCO1

>  <Value Reported>
107

$$$$
>  <Compound>
N#Cc1ccc2c(c1)CCCOc1cc(ccc1Cc1nc3ccc(C(=O)O)nc3n1C[C@@H]1CCO1)-c1cccc(n1)OC2

>  <Value Reported>
97.2

$$$$
>  <Compound>
COCCOc1cc(C(=O)O)cc2c1nc(Cc1ccc3cc1COCCc1cc(ccc1C#N)COc1cccc-3n1)n2C[C@@H]1CCO1

>  <Value Reported>
110

$$$$
>  <Compound>
COc1cc(C(=O)O)cc2c1nc(Cc1cc(C)c3cc1OCCCc1cc(C(F)(F)F)ccc1COc1cccc-3n1)n2C[C@@H]1CCO1

>  <Value Reported>
125

$$$$
>  <Compound>
O=C(O)c1ccc2nc(Cc3ccc4cc3OCCCc3cc(-c5cn[nH]c5)ccc3COc3cccc-4n3)n(C[C@@H]3CCO3)c2c1

>  <Value Reported>
98.1

$$$$
>  <Compound>
N#Cc1ccc2c(c1)COCc1cc(c(F)cc1Cc1nc3ccc(C(=O)O)cc3n1C[C@@H]1CCO1)-c1cccc(n1)OC2

>  <Value Reported>
109

$$$$
>  <Compound>
COCCOc1cc(C(=O)O)cc2c1nc(Cc1ccc3cc1COCCc1cc(C(F)(F)F)ncc1COc1cccc-3n1)n2C[C@@H]1CCO1

>  <Value Reported>
108

$$$$
>  <Compound>
COc1cc(-c2ccc3c(c2)CCCOc2cc(ccc2Cc2nc4ccc(C(=O)O)cc4n2C[C@@H]2CCO2)-c2cccc(n2)OC3)ccn1

>  <Value Reported>
110

$$$$
>  <Compound>
O=C(O)c1ccc2nc(Cc3ccc4cc3OCCCc3cc(-n5ccnc5)ccc3COc3cccc-4n3)n(C[C@@H]3CCO3)c2c1

>  <Value Reported>
106

$$$$
>  <Compound>
COCCOc1cc(C(=O)O)cc2c1nc(Cc1cc(F)c3cc1COCCc1cc(Cl)cc(F)c1COc1cccc-3n1)n2C[C@@H]1CCO1

>  <Value Reported>
122

$$$$
>  <Compound>
COc1cc(C(=O)O)cc2c1nc(Cc1cc(F)c3cc1OCCCc1cc(C#N)cnc1COc1cccc-3n1)n2C[C@@H]1CCO1 [Example 43, diformate salt]

>  <Value Reported>
86.9

$$$$
>  <Compound>
N#Cc1ccc2c(c1)OCCc1cc(c(F)cc1Cc1nc3ccc(C(=O)O)cc3n1C[C@@H]1CCO1)-c1cccc(n1)OC2

>  <Value Reported>
103

$$$$
>  <Compound>
N#Cc1ccc2c(c1)CCCOc1cc(ccc1Cc1nc3ccc(-c4nnn[nH]4)cc3n1C[C@@H]1CCO1)-c1cccc(n1)OC2

>  <Value Reported>
89.1

$$$$
>  <Compound>
N#Cc1ccc2c(c1)CCCOc1cc(c(F)cc1Cc1nc3c(F)cc(C(=O)O)cc3n1C[C@@H]1CCO1)-c1cccc(n1)OC2

>  <Value Reported>
98

$$$$

###

# Tested System: human GLP-1R (Homo sapiens, UniProt P43220)
# Protocol Details: Human GLP-1 Receptor HEK293 cell cAMP assay, 104 fmol/mg GLP-1R expression density
# Format: cell-based
# Parameters: expressed in transfected cells; host or cells: HEK293 clonal cell line
# Recorded Conditions: HEK293 cell line with 104 fmol/mg expression density of GLP-1R; geometric mean; read-out: EC50 nM (SEM, n), intracellular cAMP response, relative EC50
Endpoint Label: EC50 (nM)

Sample records with EC50:
>  <Molecule>
COCCOc1cc(C(=O)O)cc2c1nc(Cc1cc(F)c3cc1COCc1cc(-c4ccc(=O)n(C)c4)ccc1COc1cccc-3n1)n2C[C@@H]1CCO1 [Example 75]

>  <Tested System>
human GLP-1R (Homo sapiens, UniProt P43220)

>  <EC50 / nM>
17.4

$$$$
>  <Molecule>
O=C(O)c1ccc2nc(Cc3ccc4cc3OCCCc3cc(-c5cn[nH]c5)ccc3COc3cccc-4n3)n(C[C@@H]3CCO3)c2c1 [Example 30]

>  <Tested System>
human GLP-1R (Homo sapiens, UniProt P43220)

>  <EC50 / nM>
118

$$$$
>  <Molecule>
Cc1nc(CCOc2cc(C(=O)O)cc3c2nc(Cc2ccc4cc2OCCCc2cc(C#N)ccc2COc2cccc-4n2)n3C[C@@H]2CCO2)co1 [Example 53]

>  <Tested System>
human GLP-1R (Homo sapiens, UniProt P43220)

>  <EC50 / nM>
293

$$$$
>  <Molecule>
N#Cc1ccc2c(c1)CCCOc1cc(ccc1Cc1nc3ccc(-c4nnn[nH]4)cc3n1C[C@@H]1CCO1)-c1cccc(n1)OC2 [Example 41]

>  <Tested System>
human GLP-1R (Homo sapiens, UniProt P43220)

>  <EC50 / nM>
713

$$$$
>  <Molecule>
N#Cc1ccc2c(c1)CCCOc1cc(c(F)cc1Cc1nc3c(F)cc(C(=O)O)cc3n1C[C@@H]1CCO1)-c1cccc(n1)OC2 [Example 2]

>  <Tested System>
human GLP-1R (Homo sapiens, UniProt P43220)

>  <EC50 / nM>
17.5

$$$$

P: N#Cc1ccc2c(c1)CCCOc1cc(ccc1Cc1nc3ccc(C(=O)O)nc3n1C[C@@H]1CCO1)-c1cccc(n1)OC2 [Example 6]
Q: N#Cc1ccc2c(c1)OCCOc1cc(c(F)cc1Cc1nc3ccc(C(=O)O)cc3n1C[C@@H]1CCO1)-c1cccc(n1)OC2 [Example 13]
R: COc1cc(C(=O)O)cc2c1nc(Cc1cc(C)c3cc1OCCCc1cc(F)ccc1COc1cccc-3n1)n2C[C@@H]1CCO1 [Example 22]
**Query** Rank the items in ascending order with respect to EC50. A ranking is expressed here by listing the labels in the requested order.
**Result** R, Q, P
(R: 10.6 nM, Q: 542 nM, P: 1020 nM)

###

# Tested System: human GLP-1R (Homo sapiens, UniProt P43220)
# Protocol Details: Human GLP-1 Receptor HEK293 cell cAMP assay, 104 fmol/mg GLP-1R expression density
# Type: cell-based
# Parameters: expressed in transfected cells; host or cells: HEK293 clonal cell line
# Recorded Conditions: HEK293 cell line with 104 fmol/mg expression density of GLP-1R; percent of maximal response to GLP-1(7-36)NH2; arithmetic mean; read-out: Emax % (SEM, n), intracellular cAMP response
Endpoint Label: Emax (%)

>  <Structure Smiles String>
O=C(O)c1ccc2nc(Cc3ccc4cc3OCCCc3cc(-c5cnn(C6CC6)c5)ccc3COc3cccc-4n3)n(C[C@@H]3CCO3)c2c1

>  <Emax (%)>
88.1

$$$$
>  <Structure Smiles String>
CCn1cncc1Cn1c(Cc2ccc3cc2OCCCc2cc(C#N)ccc2COc2cccc-3n2)nc2ccc(C(=O)O)cc21

>  <Emax (%)>
81

$$$$
>  <Structure Smiles String>
Cn1cc(-c2ccc3c(c2)CCCOc2cc(ccc2Cc2nc4ccc(C(=O)O)cc4n2C[C@@H]2CCO2)-c2cccc(n2)OC3)ccc1=O

>  <Emax (%)>
80

$$$$
>  <Structure Smiles String>
COc1cc(C(=O)O)cc2c1nc(Cc1ccc3cc1OCCCc1cc(C#N)ccc1COc1cccc-3n1)n2C[C@@H]1CCO1

>  <Emax (%)>
81.6

$$$$
>  <Structure Smiles String>
O=C(O)c1ccc2nc(Cc3ccc4cc3OCCCc3cc(-c5cnn(C6COC6)c5)ccc3COc3cccc-4n3)n(C[C@@H]3CCO3)c2c1

>  <Emax (%)>
78.2

$$$$
>  <Structure Smiles String>
N#Cc1ccc2c(c1)CCCOc1cc(c(F)cc1Cc1nc3ccc(C(=O)O)cc3n1C[C@@H]1CCO1)-c1cccc(n1)NC2

>  <Emax (%)>
81.5

$$$$
>  <Structure Smiles String>
COCCOc1cc(C(=O)O)cc2c1nc(Cc1ccc3cc1COCCc1nc(ccc1C#N)COc1cccc-3n1)n2C[C@@H]1CCO1

>  <Emax (%)>
91.7

$$$$
>  <Structure Smiles String>
COc1cc(C(=O)O)cc2c1nc(Cc1cc(C)c3cc1OCCCc1nc(C(F)(F)F)ccc1COc1cccc-3n1)n2C[C@@H]1CCO1

>  <Emax (%)>
91.3

$$$$
